Let's go through some GI50 measurements on MDA-MB-231 (breast) together.

A selection of reference data follows.
[
  {
    "molecule": "C=C1C[C@@]23C[C@@H]1CC[C@]2(O)[C@@]1(C)[C@@H](O)CCC(C)(C)[C@@H]1[C@H](O)C3",
    "GI50": "> 30 µM"
  },
  {
    "molecule": "COc1cccc2c1C(=O)c1c(O)c3c(c(O)c1C2=O)C[C@@](O)(C(=O)CO)C[C@@H]3O[C@H]1C[C@H](N)[C@H](O)[C@H](C)O1 [Doxorubicin, reference compound]",
    "GI50": "0.21 µM"
  },
  {
    "molecule": "C=C1C[C@@]23C[C@@H]1CC[C@]2(O)[C@@]1(C)CCC[C@@](C)(CO)[C@@H]1[C@H](O)C3",
    "GI50": "> 30 µM"
  },
  {
    "molecule": "C=C1C[C@@]23C[C@@H]1CC[C@]2(O)[C@@]1(C)CC[C@H](O)C(C)(C)[C@@H]1[C@H](O)C3",
    "GI50": "> 30 µM"
  },
  {
    "molecule": "C=C1C2CCC3(O)C4(C)CCCC(C)(CO)C4C(O)CC3(C2)C1O (stereo not drawn)",
    "GI50": "5.73 µM"
  }
]

Consider now this further molecule.
Measured GI50 (MDA-MB-231 (breast)), entry C=C1C[C@@]23C[C@@H]1CC[C@]2(O)[C@@]1(C)CCCC(C)(C)[C@@H]1[C@H](O)C3 : > 30 µM
